# Lookup of reported IC50 keyed by entry
Molecular target: Aldo-keto reductase family 1 member B1 (Homo sapiens)
Assay: Compound was evaluated for inhibition of human placental aldose reductase (HPAR) activity with glyceraldehyde as substrate

MOLECULE	IC50
CS(=O)(=O)c1ccc(Cl)cc1-c1[nH]c(=O)[nH]c1O	50 nM
C[S+]([O-])c1ccc(Cl)cc1-c1[nH]c(=O)[nH]c1O (configuration not stated)	250 nM

====

Molecular target: Aldo-keto reductase family 1 member B1 (Homo sapiens)
Test: ChEBML_157077
The label MET is reserved for IC50 strictly under 300 nM; NOT MET covers values equal to or above it.

SMILES_REPR	CLASS_NAME
O=c1[nH]c(O)c(-c2cc(Cl)ccc2S(=O)(=O)Cc2ccc(Cl)cc2)[nH]1	MET
CS(=O)(=O)c1c(-c2[nH]c(=O)[nH]c2O)cc(Cl)cc1C(F)(F)F	NOT MET
CCCNS(=O)(=O)c1ccc(Cl)cc1-c1[nH]c(=O)[nH]c1O	NOT MET
O=c1[nH]c(O)c(-c2cc(Cl)ccc2S(=O)(=O)Nc2ccc(F)cc2)[nH]1	MET
CS(=O)(=O)c1ccc(F)cc1-c1[nH]c(=O)[nH]c1O	NOT MET
CS(=O)(=O)c1c(Cl)cc(Cl)cc1-c1[nH]c(=O)[nH]c1O	NOT MET
CCCCCS(=O)(=O)c1ccc(Cl)cc1-c1[nH]c(=O)[nH]c1O	MET
Cc1cc(Cl)cc(-c2[nH]c(=O)[nH]c2O)c1S(C)(=O)=O	MET
CCCCCCS(=O)(=O)c1ccc(Cl)cc1-c1[nH]c(=O)[nH]c1O	MET
CCCS(=O)(=O)c1ccc(Cl)cc1-c1[nH]c(=O)[nH]c1O	MET
